These entries and their values trace back to PubChem BioAssay (NCI).

Entries annotated with measured growth
# Tested on: UACC-62 melanoma
# Test Protocol: NCI-60 one-dose screen, 48 h (100 = growth as untreated, 0 = no growth, -100 = all killed)
# Condition Set: 10 µM unless noted
This is part of a sample that, as a whole, favours compounds with a hit. Of some 83,000 tested, about 20% had one in any assay.
Write it as a number; the unit % goes unstated.

Examples with answers:
N#CCN1C(=O)C2C3=C(CCCC3)SC2N=C1CN1CCCC1 (centres undefined) ... 83.6
C=C(C)[C@@H]1CC[C@]2(C(=O)NC3CCCCC3)CC[C@]3(C)[C@H](CC[C@@H]4[C@@]5(C)CCC(=O)C(C)(C)[C@@H]5CC[C@]43C)[C@@H]12 ... 76.9
CCCCCCCCCCCCCCCCCCOc1ccccc1CC(=O)OCCC[N+](C)(C)C ... 54.2

**Query** Retrieve growth measured for "CC/C=C\CCC/C=C1/C(=O)C=C[C@@H]1C/C=C\CCCC(=O)O" and print it.
**Result** 15.6

**Query** Retrieve growth measured for "Cc1cc(NCc2cc(Nc3ccnc4cc(Cl)ccc34)ccc2F)nc(N2CCN(C)CC2)n1" and print it.
**Result** -63.8

**Query** Retrieve growth measured for "O=C(O)c1ccc2c(c1)CCC2" and print it.
**Result** 113

----------
Entries annotated with measured growth
# System: SN12C renal
# Test Protocol: NCI-60 one-dose screen, 48 h (100 = growth as untreated, 0 = no growth, -100 = all killed)
# Condition Set: 10 µM unless noted
About 83,000 compounds went through this panel and 20% of them were active in at least one assay; those are over-represented in the sample as a whole.
Write it as a number; the unit % goes unstated.

Examples with answers:
CC(CCc1ccc(Cl)c(Cl)c1)NCc1ccc(C(C)(C)C)cc1 (stereo not given) ... 91.9
COc1cc(-c2nc(N3CCN(C)CC3)c3ccccc3n2)cc(OC)c1OC ... 82.6

**Query** Retrieve growth measured for "N=c1sc(Cc2ccc(Cl)cc2)cn1CC(=O)c1ccc(F)cc1" and print it.
**Result** 87.5

**Query** Retrieve growth measured for "COc1cccc(-c2nn(-c3ccccc3)cc2-c2ccnc(NCCCNC(=O)Nc3ccc(Cl)c(Cl)c3)c2)c1" and print it.
**Result** 37.5

**Query** Retrieve growth measured for "c1cc2ccc3cc2cc1CNCCOCCNCc1ccc2ccc(cc2c1)CNCCOCCNC3" and print it.
**Result** -19.9

----------
# Test system: K-562 leukemia
# Test Protocol: NCI-60 one-dose screen, 48 h
# Condition Set: 10 µM unless noted
About 83,000 compounds went through this panel and 20% of them were active in at least one assay; those are over-represented in the sample as a whole. The source made the active and inactive calls. How the source made its calls: active means growth percent below 10; inactive means the rest.
One label from this list, please: active, inactive

Cc1cc(NCc2cc(Nc3ccnc4cc(Cl)ccc34)ccc2F)nc(N2CCOCC2)n1 ... active

**Query** Which outcome did this test record for the molecule "Cc1cc(NCc2cc(Nc3ccnc4cc(Cl)ccc34)ccc2F)nc(N2CCN(c3ccccc3)CC2)n1" ?
**Result** active

**Query** Which outcome did this test record for the molecule "COC(=O)[C@]12CC[C@@H](C)[C@H](C)[C@@H]1C1=CC[C@@H]3[C@@]4(C)C(C=O)=C[C@@](C)(COC(=O)c5ccco5)[C@@H]4C(=O)C[C@@]3(C)[C@]1(C)CC2" ?
**Result** inactive

**Query** Which outcome did this test record for the molecule "Cc1cc(NCCCCNc2ccnc3cc(Cl)ccc23)nc(Nc2ccc(C(=O)N3CCCCC3)cc2)n1" ?
**Result** active

----------
# Test system: OVCAR-4 ovarian
# Test Protocol: NCI-60 one-dose screen, 48 h
# Condition Set: 10 µM unless noted
Compounds without any hit were thinned out: in the full panel of roughly 83,000, 20% have a hit. The source made the active and inactive calls. The calls were made as follows: active = growth percent below 10; inactive = the rest.
One label from this list, please: active, inactive

Below, 5 compounds whose answers are already recorded.
O=c1cc(-c2ccc(Cl)cc2)[nH]c2ccccc12 ... inactive
CCN1CCN(c2cc(C)nc(NCc3cc(Nc4ccnc5cc(Cl)ccc45)ccc3F)n2)CC1 ... inactive
CCN(CC)CCCNc1ccc(Nc2ccc(OC)cc2)cc1 ... inactive
COc1ccc(NC(=O)CSc2nnc(-c3cc(-c4ccccc4)nc4ccccc34)n2-c2ccccc2)cc1 ... inactive
CC(C)(C)c1ccc(/C=C/C(=O)Nc2ccc(O)cc2)cc1 ... inactive

**Query** Which outcome did this test record for the compound CCCCOc1nc2ccccc2cc1C1CNC(=O)c2ccccc2N1 (stereo not given) ?
**Result** inactive

**Query** Which outcome did this test record for the compound "COc1ccc(OC)c(-c2c(C#N)c(-c3ccc(Cl)cc3)nc3c2c(-c2ccccc2)nn3-c2ccccc2)c1" ?
**Result** inactive

**Query** Which outcome did this test record for the compound "CC1(C)CC[C@]2(C(=O)N3CCOCC3)CC[C@]3(C)C(=CC[C@@H]4[C@@]5(C)CC[C@H](OC(=O)c6cccnc6)C(C)(C)[C@@H]5CC[C@]43C)[C@@H]2C1" ?
**Result** inactive

**Query** Which outcome did this test record for the compound "C=CCOC1=CC(=O)c2ccccc2C1=O" ?
**Result** inactive

**Query** Which outcome did this test record for the compound "CC1=NOC(=O)/C1=C\c1ccc(O)cc1" ?
**Result** inactive

**Query** Which outcome did this test record for the compound COc1cc2c(cc1-c1c(C)noc1C)ncc1nc(C3CCC(F)(F)CC3)n(C3CCC(OC(F)F)CC3)c12 (stereo not given) ?
**Result** inactive

----------
# System: SK-MEL-2 melanoma
# Test Protocol: NCI-60 one-dose screen, 48 h (100 = growth as untreated, 0 = no growth, -100 = all killed)
# Condition Set: 10 µM unless noted
# Experimental: Growth inhibition of the SK-MEL-2 human tumor cell line is measured as a screen for anti-cancer activity. Cells are grown in 96 well plates and exposed to the test compound for 48 hours. Compounds are tested at a single concentration, which is 10^-5 M for most compounds. The reported endpoint is percent growth (GI% or GIPRCNT), where numbers from 0 - 100% represent growth inhibition, and numbers from -100% - 0 represent cell death. For example, a value of 40 represents 60% growth inhibition. […]
About 83,000 compounds went through this panel and 20% of them were active in at least one assay; those are over-represented in the sample as a whole.
Entries annotated with measured growth
Write it as a number; the unit % goes unstated.

CCc1c2c(nc3ccc(OC(=O)OCc4ccc(B5OC(C)(C)C(C)(C)O5)cc4)cc13)-c1cc3c(c(=O)n1C2)COC(=O)[C@]3(O)CC ... -30.5

**Query** Retrieve growth measured for "COc1ccc(NC(=O)CSc2nnc(-c3cc(-c4ccccc4)nc4ccccc34)n2-c2ccccc2)cc1" and print it.
**Result** 102

**Query** Retrieve growth measured for Nc1nc(N)c2c(n1)NC(c1ccccc1)C1CCc3ccccc3C1=N2 (centres undefined) and print it.
**Result** 86.6

----------
Entries annotated with measured growth
# Tested on: NCI-H322M lung
# Test Protocol: NCI-60 one-dose screen, 48 h (100 = growth as untreated, 0 = no growth, -100 = all killed)
# Condition Set: 10 µM unless noted
This is part of a sample that, as a whole, favours compounds with a hit. Of some 83,000 tested, about 20% had one in any assay.
Write it as a number; the unit % goes unstated.

CC(C)(C)C(CCc1ccc(Cl)cc1)N1CCN(C2CCCCC2)CC1 (stereo unspecified) ... 82.8
COc1ccc(-c2csc(C3=C(O)CN(C(C)C)C3=N)n2)cc1OC ... 91.6
Cc1ccc(-c2cc(-c3cccnc3)[nH]c(=O)c2C#N)cc1 ... 103
COc1ccc(OC)c2c1[nH]c(=O)c1c3ncccc3cn21 ... 48.5

**Query** Retrieve growth measured for "CNC(=O)CCN1CCN(CC/C=C2\c3ccccc3Sc3ccc(Cl)cc32)CC1" and print it.
**Result** 74.8

**Query** Retrieve growth measured for "O=c1[nH]c2ccccc2n1C1CCN(CCOc2ccccc2)CC1" and print it.
**Result** 98.8

----------
# System: T-47D breast
# Test Protocol: NCI-60 one-dose screen, 48 h (100 = growth as untreated, 0 = no growth, -100 = all killed)
# Condition Set: 10 µM unless noted
About 83,000 compounds went through this panel and 20% of them were active in at least one assay; those are over-represented in the sample as a whole.
Property Label: growth (%)
Write it as a number; the unit % goes unstated.

Examples with answers:
CC(CCc1ccc(Cl)c(Cl)c1)NCc1ccc(C(C)(C)C)cc1 (configuration not stated) ... 67.7
Cc1nn(-c2ccccc2)c(Cl)c1/C=C(/NC(=O)c1ccccc1)c1nc2ccccc2[nH]1 ... 86.7

**Query** Retrieve growth measured for CC(C)CC(NC(=O)CN(Cc1ccccc1)S(C)(=O)=O)C(=O)O (configuration not stated) and print it.
**Result** 82

**Query** Retrieve growth measured for "C[C@H]1[C@H]2[C@H]3CC[C@@H]4[C@@]5(C)C/C(=C/c6cccnc6)C(=O)C(C)(C)[C@@H]5CC[C@@]4(C)[C@]3(C)CC[C@]23CO[C@]1(C)[C@@H](C(=O)/C=C\c1cccnc1)C3" and print it.
**Result** 24.6
